target: T1, full length human DLL4 (human, UniProt Q9NR61 27-685); assay: FMAT competition, purified antibody vs Alexa-647 human Notch1/Fc, 293T cells with human DLL4
T1 construct: whole, on cells; also called native DLL4 expressed in HEK293 cells
T1 sequence (Q9NR61 27-685): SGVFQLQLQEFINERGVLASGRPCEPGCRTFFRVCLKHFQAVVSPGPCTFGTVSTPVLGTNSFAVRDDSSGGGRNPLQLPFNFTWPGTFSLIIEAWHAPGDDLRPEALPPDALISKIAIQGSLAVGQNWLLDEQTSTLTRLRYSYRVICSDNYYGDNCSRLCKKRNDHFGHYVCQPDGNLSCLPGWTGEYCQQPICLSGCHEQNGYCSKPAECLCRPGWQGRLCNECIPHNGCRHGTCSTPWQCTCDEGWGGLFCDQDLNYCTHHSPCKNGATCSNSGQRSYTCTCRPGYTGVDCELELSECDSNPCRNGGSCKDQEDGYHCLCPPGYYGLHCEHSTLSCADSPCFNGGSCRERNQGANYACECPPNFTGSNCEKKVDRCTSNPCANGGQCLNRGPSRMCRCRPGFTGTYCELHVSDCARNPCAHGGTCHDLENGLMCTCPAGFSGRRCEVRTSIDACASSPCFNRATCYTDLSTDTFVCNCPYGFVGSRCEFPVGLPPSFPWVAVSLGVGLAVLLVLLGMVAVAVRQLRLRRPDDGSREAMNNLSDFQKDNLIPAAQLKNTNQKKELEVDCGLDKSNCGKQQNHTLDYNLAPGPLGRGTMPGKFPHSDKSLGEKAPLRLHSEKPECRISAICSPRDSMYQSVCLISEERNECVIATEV
endpoint-name: % inhibition at 1.9 nM (%)
// return numeric value only (unit: %, not printed)

Sample 1E4 (antibody, IgG2, V domains shown, Fully human; also used where no isotype is printed) VH: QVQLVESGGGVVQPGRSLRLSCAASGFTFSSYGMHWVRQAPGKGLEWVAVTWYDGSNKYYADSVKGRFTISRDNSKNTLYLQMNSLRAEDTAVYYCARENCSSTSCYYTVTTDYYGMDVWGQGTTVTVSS VL: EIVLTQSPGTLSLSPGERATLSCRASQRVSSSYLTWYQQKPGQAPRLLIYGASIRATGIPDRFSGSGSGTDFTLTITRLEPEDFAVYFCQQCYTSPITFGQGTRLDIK ; % inhibition at 1.9 nM observed: 91
